Origin of measurements: patent US6512006B1

System: uninfected CEM cells
Test: Cellular toxicity in uninfected CEM cells (XTT)
Format: cell-based
Conditions: cytotoxicity in 50% of uninfected CEM cells; read-out: TC50 (the source's name)
REPORTED_METRIC: CC50
Please answer using the number first and the unit second.

Measured CC50 of CCCN(C1=C(O)CC(CCc2ccc(O)cc2)(C(C)C)OC1=O)c1cccc(NS(=O)(=O)c2ccc(C(F)(F)F)cn2)c1 (stereo not shown) : 71 µM

###

REPORTED_METRIC: melting point

Measured melting point of CC(C)C1(CCc2ccc(O)cc2)CC(O)=C(N(CCC#N)c2ccccc2)C(=O)O1 (stereo not drawn) [Example 21] : 119 to 121 °C

Measured melting point of CCCN(C1=C(O)CC(CCc2ccsc2)(C(C)C)OC1=O)c1ccccc1 (stereo not drawn) : 53 to 55 °C

Measured melting point of CCCN(C1=C(O)CC(CCc2ccccc2)(C(C)C)OC1=O)c1ccccc1 (stereo not drawn) : 160 to 162 °C

Measured melting point of CCN(C1=C(O)CC(CCc2ccc(O)cc2)(C(C)C)OC1=O)c1ccc2ccccc2c1 (stereo not drawn) : 97 to 99 °C

Measured melting point of CCN(C1=C(O)CC(CCc2ccc(O)cc2)(C(C)C)OC1=O)c1ccccc1 (stereo not drawn) : 63 to 65 °C

Measured melting point of COc1ccc(N(C2=C(O)CC(CCc3ccc(O)cc3)(C(C)C)OC2=O)c2ccccc2)cc1 (stereo not drawn) : 95 to 96 °C

Measured melting point of CCCN(C1=C(O)CC(CCc2ccc(O)cc2)(C2CCCC2)OC1=O)c1cccc(NS(=O)(=O)c2ccc(C(F)(F)F)cn2)c1 (stereo not drawn) : 104 to 106 °C

Measured melting point of CC(C)C1(CCc2ccc(O)cc2)CC(O)=C(N(CCO)c2ccccc2)C(=O)O1 (stereo not drawn) : 85 to 86 °C

Measured melting point of CCCN(C1=C(O)CC(CCc2ccc(O)cc2)(C(C)C)OC1=O)c1cccc2c(O)cccc12 (stereo not drawn) : 93 to 96 °C
